Test system: P. multocida 46572
test.summary: In vivo mouse lung infection challenge model (murine)
Parameters: species or system CD-1 female mice
condition.info: 46572, sc, 20 mg/kg, 240 h
Protocol: The challenge organism was P. multocida 46572. Target challenge concentration was 5×10^2 CFU/mouse. Isolated colonies from overnight growth (37° C. with 5% CO2) on trypticase soy agar (TSA II) blood plates were transferred to room temperature Brain Heart Infusion Broth (BHIB). The broth culture was incubated 3.5-4 hours to approximately mid-log phase of growth, as measured by forward light scatter at 600 nm (OD600, 0.200). The culture was centrifuged to collect the bacterial pellet. […]
experimental.readout: % Survival (%)
Answer format: numeric, % implied, no suffix.

>  <compound.structure.string>
CC[C@H]1OC(=O)[C@H](C)[C@@H](O)[C@H](C)[C@@H](O[C@@H]2O[C@H](C)C[C@H](N(C)C(=O)N(C)c3ccccc3)[C@H]2Oc2ccccc2)[C@](C)(O)C[C@@H](C)CN[C@H](C)[C@@H](O)[C@]1(C)O

>  <target>
P. multocida 46572

>  <% Survival [%]>
54

$$$$
>  <compound.structure.string>
CCCNC[C@]1(O)[C@H](C)O[C@@H](O[C@H]2[C@H](C)[C@@H](O[C@@H]3O[C@H](C)C[C@H](NC)[C@H]3Oc3ccccc3)[C@](C)(O)C[C@@H](C)CN[C@H](C)[C@@H](O)[C@](C)(O)[C@@H](CC)OC(=O)[C@@H]2C)C[C@@]1(C)OC

>  <target>
P. multocida 46572

>  <% Survival [%]>
53

$$$$

Reported % Survival for CCCNC[C@]1(O)[C@H](C)O[C@@H](O[C@H]2[C@H](C)[C@@H](O[C@@H]3O[C@H](C)C[C@H](NC)[C@H]3Oc3ccc(Cl)nc3)[C@](C)(O)C[C@@H](C)CN[C@H](C)[C@@H](O)[C@](C)(O)[C@@H](CC)OC(=O)[C@@H]2C)C[C@@]1(C)OC : what is it?
36

Reported % Survival for CC[C@H]1OC(=O)[C@H](C)[C@@H](O)[C@H](C)[C@@H](O[C@@H]2O[C@H](C)C[C@H](NC)[C@H]2Oc2ccc(OC)cc2)[C@](C)(O)C[C@@H](C)CN[C@H](C)[C@@H](O)[C@]1(C)O : what is it?
1

###

# maps each entry to its pIC50
Test system: TNF-α
test.summary: Whole blood assay, LPS stimulation, MSD cytokine detection
Format: cell-based
condition.info: fresh whole bovine blood
pIC50 here is simply -log10 of the concentration when that concentration is written in mol/L.

>  <compound.structure.string>
CCCNC[C@]1(O)[C@H](C)O[C@@H](O[C@H]2[C@H](C)[C@@H](O[C@@H]3O[C@H](C)C[C@H](N(C)Cc4ccc(OC)cc4)[C@H]3Oc3ccccc3)[C@](C)(O)C[C@@H](C)CN[C@H](C)[C@@H](O)[C@](C)(O)[C@@H](CC)OC(=O)[C@@H]2C)C[C@@]1(C)OC

>  <assay.result>
5.22

$$$$

Reported pIC50 for CCCNC[C@]1(O)[C@H](C)O[C@@H](O[C@H]2[C@H](C)[C@@H](O[C@@H]3O[C@H](C)C[C@H](N(C)Cc4nccs4)[C@H]3Oc3ccccc3)[C@](C)(O)C[C@@H](C)CN[C@H](C)[C@@H](O)[C@](C)(O)[C@@H](CC)OC(=O)[C@@H]2C)C[C@@]1(C)OC : what is it?
5.22

Reported pIC50 for CCCNC[C@]1(O)[C@H](C)O[C@@H](O[C@H]2[C@H](C)[C@@H](O[C@@H]3O[C@H](C)C[C@H](N(C)Cc4cccnc4)[C@H]3Oc3ccccc3)[C@](C)(O)C[C@@H](C)CN[C@H](C)[C@@H](O)[C@](C)(O)[C@@H](CC)OC(=O)[C@@H]2C)C[C@@]1(C)OC : what is it?
5.00

Reported pIC50 for CCCNC[C@]1(O)[C@H](C)O[C@@H](O[C@H]2[C@H](C)[C@@H](O[C@@H]3O[C@H](C)C[C@H](N(C)Cc4ccccc4)[C@H]3Oc3ccccc3)[C@](C)(O)C[C@@H](C)CN[C@H](C)[C@@H](O)[C@](C)(O)[C@@H](CC)OC(=O)[C@@H]2C)C[C@@]1(C)OC : what is it?
5.70

###

Tested on: TNF-α
test.summary: Whole blood assay, LPS stimulation, MSD cytokine detection
Assay type: cell-based
condition.info: fresh whole bovine blood
# maps each entry to its pIC50
pIC50 here is simply -log10 of the concentration when that concentration is written in mol/L.

Examples from the recorded data:
>  <compound.structure.string>
CCCNC[C@]1(O)[C@H](C)O[C@@H](O[C@H]2[C@H](C)[C@@H](O[C@@H]3O[C@H](C)C[C@H](NC)[C@H]3Oc3cc(F)c(F)c(F)c3)[C@](C)(O)C[C@@H](C)CN[C@H](C)[C@@H](O)[C@](C)(O)[C@@H](CC)OC(=O)[C@@H]2C)C[C@@]1(C)OC

>  <assay.result>
4.92

$$$$
>  <compound.structure.string>
CC[C@H]1OC(=O)[C@H](C)[C@@H](O[C@H]2C[C@@](C)(OC)[C@](O)(CNCCN(C)C)[C@H](C)O2)[C@H](C)[C@@H](O[C@@H]2O[C@H](C)C[C@H](N(C)C)[C@H]2Oc2ccccc2)[C@](C)(O)C[C@@H](C)CN[C@H](C)[C@@H](O)[C@]1(C)O

>  <assay.result>
5.10

$$$$
>  <compound.structure.string>
CC[C@H]1OC(=O)[C@H](C)[C@@H](O[C@H]2C[C@@](C)(OC)[C@@H](O)[C@H](C)O2)[C@H](C)[C@@H](O[C@@H]2O[C@H](C)C[C@H](NC)[C@H]2Oc2ccccc2C#N)[C@](C)(O)C[C@@H](C)CN(C)[C@H](C)[C@@H](O)[C@]1(C)O

>  <assay.result>
4.89

$$$$

Reported pIC50 for CC[C@H]1OC(=O)[C@H](C)[C@@H](O[C@H]2C[C@@](C)(OC)[C@](O)(CNC3CCC3)[C@H](C)O2)[C@H](C)[C@@H](O[C@@H]2O[C@H](C)C[C@H](N(C)C)[C@H]2Oc2ccccc2)[C@](C)(O)C[C@@H](C)CN[C@H](C)[C@@H](O)[C@]1(C)O : what is it?
5.15

###

# maps each entry to its IC50
System: TNF-α
test.summary: Whole blood assay, LPS stimulation, MSD cytokine detection
Format: cell-based
condition.info: fresh whole bovine blood
Answer format: numeric, µM implied, no suffix.

Examples from the recorded data:
>  <compound.structure.string>
CC[C@H]1OC(=O)[C@H](C)[C@@H](O)[C@H](C)[C@@H](O[C@@H]2O[C@H](C)C[C@H](N(C)C(=O)N(C)c3ccccc3)[C@H]2Oc2ccc(OC)c(OC(C)C)c2)[C@](C)(O)C[C@@H](C)CN[C@H](C)[C@@H](O)[C@]1(C)O

>  <unit.of.measurement>
µM

>  <assay.result>
28

$$$$
>  <compound.structure.string>
CCCNC[C@]1(O)[C@H](C)O[C@@H](O[C@H]2[C@H](C)[C@@H](O[C@@H]3O[C@H](C)C[C@H](NC)[C@H]3Oc3cccc(OC)c3)[C@](C)(O)C[C@@H](C)CN[C@H](C)[C@@H](O)[C@](C)(O)[C@@H](CC)OC(=O)[C@@H]2C)C[C@@]1(C)OC

>  <unit.of.measurement>
µM

>  <assay.result>
30

$$$$

Reported IC50 for CC[C@H]1OC(=O)[C@H](C)[C@@H](O)[C@H](C)[C@@H](O[C@@H]2O[C@H](C)C[C@H](N(C)C(=O)N3CCOc4ccccc43)[C@H]2Oc2ccccc2)[C@](C)(O)C[C@@H](C)CN(C)[C@H](C)[C@@H](O)[C@]1(C)O : what is it?
40

Reported IC50 for CC[C@H]1OC(=O)[C@H](C)[C@@H](O[C@H]2C[C@@](C)(OC)[C@](O)(CNc3ccccc3)[C@H](C)O2)[C@H](C)[C@@H](O[C@@H]2O[C@H](C)C[C@H](N(C)C)[C@H]2Oc2ccccc2)[C@](C)(O)C[C@@H](C)CN[C@H](C)[C@@H](O)[C@]1(C)O : what is it?
5

Reported IC50 for CCCNC[C@]1(O)[C@H](C)O[C@@H](O[C@H]2[C@H](C)[C@@H](O[C@@H]3O[C@H](C)C[C@H](NC)[C@H]3Oc3ccc(S(C)(=O)=O)cc3)[C@](C)(O)C[C@@H](C)CN[C@H](C)[C@@H](O)[C@](C)(O)[C@@H](CC)OC(=O)[C@@H]2C)C[C@@]1(C)OC : what is it?
45

Reported IC50 for CCCNC[C@]1(O)[C@H](C)O[C@@H](O[C@H]2[C@H](C)[C@@H](O[C@@H]3O[C@H](C)C[C@H](N(C)C)[C@H]3Oc3cnc(OC)nc3)[C@](C)(O)C[C@@H](C)CN[C@H](C)[C@@H](O)[C@](C)(O)[C@@H](CC)OC(=O)[C@@H]2C)C[C@@]1(C)OC : what is it?
65

Reported IC50 for CCCNC[C@]1(O)[C@H](C)O[C@@H](O[C@H]2[C@H](C)[C@@H](O[C@@H]3O[C@H](C)C[C@H](N(C)C(=O)N(C)c4ncccn4)[C@H]3Oc3ccccc3)[C@](C)(O)C[C@@H](C)CN[C@H](C)[C@@H](O)[C@](C)(O)[C@@H](CC)OC(=O)[C@@H]2C)C[C@@]1(C)OC : what is it?
169

Measured values drawn from patent US12390441B2 for this set.
